- SYSTEM UNDER TEST: T1, 4H906-bN
- T1 chain: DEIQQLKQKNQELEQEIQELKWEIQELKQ
- ASSAY EXPLANATION: two-hybrid library CCNG1;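 also: natural log of median RNA to DNA barcode read ratio; higher means stronger binding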
PROPERTY MEASURED: interaction score

DENQQLEQENQELKQEIQELEWKIQELKQ [4H1222-bN] | -1.3

[a] DKNQQLEQENQELKQEIQELKWKIQELEQ [4H3277-bN]
[b] DEIQQLKQKIQELKQENQELEWEIQELKQ [4H850-bN]
[c] DENQQLKQKIQELKQKIQELKWENQELEQ [4H1899-bN]
Would you mind ranking these binders by ascending interaction score? Put the labels in the order asked and list them.
a, c, b
